Tested on: Caco-2
measurement protocol: cell viability relative to DMSO; higher = less toxic
recorded conditions: 72 h; 1000 nM
Measured cell viability by item
parameter: cell viability

{"query smiles": "CC1=C(/C=C/C(C)=C/C=C/C(C)=C/CO)C(C)(C)CCC1", "result": "97.8%"}
{"query smiles": "O=C(c1c2ccccc2cc2ccccc12)N1CCC(N2CCC[C@@H](C(=O)N3CCOCC3)C2)CC1", "result": "94.3%"}
{"query smiles": "O=C1CCC2CCC(=O)N12", "result": "98.6%"}
{"query smiles": "C[C@]12CC[C@H]3[C@@H](CCC4=CC(=O)CC[C@@H]43)[C@@H]1CC[C@@H]2O", "result": "103%"}
